Source: paper PMC3789947

Target: bovine mincle CRD (Bos taurus, UniProt E1BHM0, I174T)
Construct: C-type carbohydrate recognition domain, residues 78-211
Sequence (E1BHM0 78-211 I174T): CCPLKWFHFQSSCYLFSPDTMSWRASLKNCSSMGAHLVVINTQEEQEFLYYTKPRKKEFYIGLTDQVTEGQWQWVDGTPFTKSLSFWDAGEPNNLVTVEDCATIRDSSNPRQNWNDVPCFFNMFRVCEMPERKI
Assay: competition with […]-Man31-BSA on immobilized biotin-tagged CRD
pKi: −log10 of the molar value.

{"columns": ["compound", "testedSystem", "pKi"],
 "data": [
  ["CCCCCCCC(=O)OC[C@H]1O[C@H](O[C@H]2O[C@H](CO)[C@@H](O)[C@H](O)[C@H]2O)[C@H](O)[C@@H](O)[C@@H]1O", "bovine mincle CRD (Bos taurus, UniProt E1BHM0, I174T)", 4.24]
]}
